assay: inhibitors of HIV fusion peptide binding, primary screen, biochemical, uHTS, fluorescence dequenching (AID 1986); conditions: cell-free peptide binding, 30 min, at 20 µM, active compounds read high
Out of some 290,000 compounds screened, about 890 (0.31%) were called active. The list comes from a sample in which actives are over-represented; it also holds close analogues and randomly drawn compounds.
assay-endpoint: inhibition (%)
The reply should contain only the number, in %.

- compound: "Cc1ccc(-c2nc3sc(C#N)c(N)n3c(=O)c2C#N)cc1"
  inhibition, %: 59.9
- compound: "CSC1=NSC2=NC(=O)/C(=C/c3coc4ccc(O)cc4c3=O)C(=N)N12"
  inhibition, %: 57.5
- compound: "O=C1CN(/N=C/c2ccc([N+](=O)[O-])o2)C(=O)N1"
  inhibition, %: 146
- compound: "COC(=O)c1sc(N2C(=O)C(O)=C(C(=O)c3ccc(C)o3)C2c2ccc(OC)c(OC)c2)nc1C (stereo not given)"
  inhibition, %: 15.3
- compound: "Cc1ccc(-c2c(C#N)c(N)n(-c3ccccc3)c(=O)c2C#N)cc1"
  inhibition, %: -0.6

Sample COc1ccc(CC(NC(C)=O)C(=O)N2CCN(C(=O)N(C(C)C)C(C)C)CC2)cc1 (stereo not given) ; inhibition observed: -0.1

Sample Cc1ccc(-c2c(C#N)c(N)n(-c3ccc(C)cc3)c(=O)c2C#N)cc1 ; inhibition observed: 3.9

Sample Cc1nc(NC(=O)/C=C/c2ccccc2)sc1C(=O)N1CCCCC1 ; inhibition observed: -0.3

Sample C=CCNCCCCOc1ccccc1-c1ccccc1 ; inhibition observed: -2

Sample Cc1cc(C)n2nc(C(=O)N/N=C/c3ccco3)nc2n1 ; inhibition observed: -0.3

---

assay: inhibitors of HIV fusion peptide binding, primary screen, biochemical, uHTS, fluorescence dequenching (AID 1986); details: cell-free peptide binding, 30 min, at 20 µM, active compounds read high
The whole screen tested about 290,000 compounds, of which about 890 (0.31%) were called active. The list comes from a sample in which actives are over-represented; it also holds close analogues and randomly drawn compounds.
Listed here are molecules together with their documented inhibition.
The reply should contain only the number, in %.

Sample CC(C)NC(=O)/C(C#N)=C\c1ccc(N(C)C)c(Br)c1 ; inhibition observed: 0.3

Sample CC(C)NC(=O)/C(C#N)=C\c1ccc(N(C)C)o1 ; inhibition observed: 78.6

---

assay: inhibitors of HIV fusion peptide binding, primary screen, biochemical, uHTS, fluorescence dequenching (AID 1986); conditions: cell-free peptide binding, 30 min, at 20 µM
Screen size: about 290,000 compounds; about 890 (0.31%) were called active. No stated cut-off is given here; in the data, active means inhibition mostly above about 52% (no sharp cut-off); inactive means mostly below about 76%. The full list was thinned out, with actives kept by preference.
Your answer must be one of the following: 1.0 = active, 0.0 = inactive

Solved cases (3 shown):
- compound: "Cc1ccccc1C(=NC(=O)c1ccccc1)c1ccccc1"
  group-label: 0.0
- compound: "Cc1nc(SCc2ccccc2)[nH]c(=O)c1CC(=O)OCC(C)C"
  group-label: 0.0
- compound: "Cc1cc[n+](-c2nc3ccccc3nc2[N-]S(=O)(=O)c2ccccc2)cc1"
  group-label: 0.0

What did this assay record as the result for CCOc1cc(/C=N/NC(=O)Cc2ccc(C(F)(F)F)cc2[N+](=O)[O-])c(Br)cc1OC ?
0.0

What did this assay record as the result for O=C(CN(c1ccc(F)cc1)S(=O)(=O)c1ccc2c(c1)OCCO2)NCC1CCCO1 (stereo unspecified) ?
0.0

What did this assay record as the result for Nc1nnc(SCc2ccc([N+](=O)[O-])cc2)s1 ?
0.0

What did this assay record as the result for CCO/C(C)=C1/SC(=S)NC1=O ?
0.0

What did this assay record as the result for O=S(=O)([N-]c1nc2ccccc2nc1-[n+]1ccc(-c2ccncc2)cc1)c1ccccc1 ?
1.0

What did this assay record as the result for COc1ccccc1-c1ccc(/C=C2/C=C(C)OC2=O)o1 ?
0.0

What did this assay record as the result for CCCCCC/C(C)=C1/SC(=S)NC1=O ?
0.0

What did this assay record as the result for Nc1cc(=O)[nH]c(SCC(=O)N2N=C(c3ccc4ccccc4c3)CC2c2ccccc2)n1 (stereo unspecified) ?
0.0

Measured values drawn from PubChem BioAssay AID1986 for this set.
